targetOfAssay: UniProtKB P14842
Sequence (P14842 whole entry): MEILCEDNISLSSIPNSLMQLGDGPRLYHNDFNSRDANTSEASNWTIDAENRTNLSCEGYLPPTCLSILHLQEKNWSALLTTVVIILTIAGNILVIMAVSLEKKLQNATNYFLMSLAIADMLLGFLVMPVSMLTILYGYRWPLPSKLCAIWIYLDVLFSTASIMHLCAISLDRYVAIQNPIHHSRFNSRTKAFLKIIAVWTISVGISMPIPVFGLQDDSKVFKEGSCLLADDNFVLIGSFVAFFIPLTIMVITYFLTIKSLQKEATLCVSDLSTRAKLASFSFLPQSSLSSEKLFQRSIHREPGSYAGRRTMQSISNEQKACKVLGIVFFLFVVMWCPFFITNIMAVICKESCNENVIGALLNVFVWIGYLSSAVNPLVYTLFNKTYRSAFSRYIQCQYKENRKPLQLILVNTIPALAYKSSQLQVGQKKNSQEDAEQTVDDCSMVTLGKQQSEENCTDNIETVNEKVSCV
measuredAttribute: IC50 (nM)

>>> resultnumber("COc1cc(C[C@@H](C)N)c(OC)cc1I [(R)-DOI]")
0.46
